- Assay: Cmax in Swiss mouse at 20 mg/kg, po measured up to 24 hrs by LC-MS analysis
- Type: ADME, organism-based
- Set-up: route oral, dose 20 mg/kg, time <=24
- Test Parameters: in vivo
Reported Cmax values are given for each entry in this list.
Endpoint: Cmax (µM)

[
  {
    "Molecule": "Cc1cc(C(C)NC(=O)c2[nH]cc(Cc3ccc(C(F)(F)F)nc3)c2C)no1 (stereo in doubt; form 1)",
    "Unit Of Measurement": "µM",
    "Recorded Measurement": 13
  },
  {
    "Molecule": "Cc1c(Cc2ccc(C(F)(F)F)nc2)c[nH]c1C(=O)NC(C)c1cnn(C)c1 (stereo in doubt; form 1)",
    "Unit Of Measurement": "µM",
    "Recorded Measurement": 36
  },
  {
    "Molecule": "Cc1c(Cc2ccc(C(F)(F)F)nc2)c[nH]c1C(=O)NC(C)c1cn[nH]c1 (stereo in doubt; form 1)",
    "Unit Of Measurement": "µM",
    "Recorded Measurement": 6.4
  }
]
